Readings of pEC50 for the listed substances
target-under-test: hGLP1R (Homo sapiens, UniProt P43220)
Construct: expressed in transfected cells; host or cells: HEK-293 cells carrying a CRE-luciferase reporter gene
Sequence (P43220 24-463): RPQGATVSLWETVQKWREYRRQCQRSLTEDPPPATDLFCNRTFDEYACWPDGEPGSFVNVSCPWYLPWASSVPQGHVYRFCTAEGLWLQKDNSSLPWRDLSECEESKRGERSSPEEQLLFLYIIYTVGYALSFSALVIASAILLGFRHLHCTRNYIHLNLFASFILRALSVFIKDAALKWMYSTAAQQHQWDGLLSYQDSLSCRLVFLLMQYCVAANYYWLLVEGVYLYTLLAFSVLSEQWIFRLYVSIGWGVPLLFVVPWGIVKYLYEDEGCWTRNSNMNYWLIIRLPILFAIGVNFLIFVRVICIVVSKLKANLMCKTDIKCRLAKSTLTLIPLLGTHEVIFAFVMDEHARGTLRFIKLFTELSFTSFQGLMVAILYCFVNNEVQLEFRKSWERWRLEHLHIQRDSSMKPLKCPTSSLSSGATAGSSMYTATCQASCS
assay-explanation: hGLP1R CreLuc reporter gene assay in 0.5% and 100% plasma
Assay type: cell-based
condition-context: CreLuc reporter gene assay, 0.5% human plasma; read-out: hGLP1R 0.5% hP
Starred links: 1 amine or outer side, 2 acyl side, 3 side chain; linkers in the order of their positions; H or OH if unused. Non-standard residues stand in square brackets, D forms with d. Groups on a side chain read outwards from the residue. *: point of attachment. C20 diacid = O=C(O)CCCCCCCCCCCCCCCCCCC(=O)*; C18 diacid = O=C(O)CCCCCCCCCCCCCCCCC(=O)*; γGlu = O=C(O)[C@H](CCC(=O)[*:2])N[*:1]; εLys = N[C@@H](CCCCN[*:1])C(=O)[*:2]; AEEA = NCCOCCOCC(=O)O; Aib = CC(C)(N)C(=O)O
Value format note: pEC50 is -log10 of concentration (mol/L); just state the number.

Inquiry: Record lookup: for hGLP1R (Homo sapiens, UniProt P43220), what pEC50 belongs to H-Y[Aib]EGTFTSDYSI[Aib]LEKQAQ[Aib]AFVQWLIK([εLys-γGlu-γGlu-γGlu-γGlu-γGlu-γGlu-C20 diacid])GGQRSYASLRHYYNWLTRQRY-NH2 [Compound 3] ?
Reply text: 9.35

Inquiry: Lookup H-Y[Aib]EGTFTSDYSI[Aib]LEKQAQ[Aib]AFVEWLIK([εLys-γGlu-γGlu-γGlu-γGlu-γGlu-γGlu-C20 diacid])GGPSSGASIRHYYNWLTRQRY-NH2 [Compound 132]
Reply text: 9.85

Inquiry: Lookup H-Y[Aib]EGTFTSDYSI[Aib]LEKQAQ[Aib]AFVEWLIK([AEEA-AEEA-γGlu-γGlu-γGlu-γGlu-γGlu-C18 diacid])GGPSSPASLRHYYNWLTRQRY-NH2 [Compound 140]
Reply text: 9.92

Inquiry: Lookup H-Y[Aib]EGTFTSDYSI[Aib]LEKQAQ[Aib]AFVEWLIK([εLys-γGlu-γGlu-γGlu-γGlu-γGlu-γGlu-C20 diacid])GGPSEYVSIRHYYNWLTRQRY-NH2 [Compound 42]
Reply text: 9.44

Inquiry: Lookup H-Y[Aib]EGTFTSDYSI[Aib]LEKQAQ[Aib]AFVEWLIK([εLys-γGlu-γGlu-γGlu-γGlu-γGlu-γGlu-C20 diacid])GGQSSGASLRHYYNWLTRQRY-NH2 [Compound 123]
Reply text: 9.62

Hello, the source for this data is patent US20240247080A1, in case you need it.
